Test: HUVEC growth inhibition – cell-based, human, primary screen (AID 575);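 also: 100% = median of untreated cell wells with 0.1% DMSO on each plate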
Details: HUVEC proliferation, CellTiter-Glo luminescence, 72 h; at 10 µM; stronger effect = lower value
parameter: viability (%)
I only need the number, in %, no unit after it.

Record `COc1ccccc1OCC(=O)N1CCNC1=O` , field viability: 84

Record `Cc1ccc(CNC(=O)C2CCN(S(=O)(=O)c3c(C)noc3C)CC2)cc1` , field viability: 106

Record `COc1ccccc1Nc1ccc(C(=O)NC2CCCCC2)cn1` , field viability: 106

Record `O=C(OCc1ccccc1F)c1ccc2c(c1)OCCO2` , field viability: 103

Record `Cc1ccccc1-c1nc(CS(=O)(=O)CC(=O)NCc2ccc3c(c2)OCO3)c(C)o1` , field viability: 87.3

Record `C(=N\n1cnnc1)/c1cccnc1` , field viability: 105

Record `O=C(Cn1cnc2ccccc2c1=O)NCCC(=O)N1CCN(Cc2ccccc2)CC1` , field viability: 98.6

Record `COc1ccc(NCc2nnc(SCC(=O)Nc3cc(C)cc(C)c3)o2)cc1` , field viability: 70

Record `CCOc1ccc(NCc2nnc(SCC(=O)Nc3cc(C)on3)n2-c2ccccc2OC)cc1` , field viability: 41.7

Record `CC(=Nc1ccc(C)c(C)c1)C1=C(O)CCC1=O` , field viability: 95.1

Record `O=C(CCn1nc(-c2ccccc2)ccc1=O)N1CCCC1` , field viability: 114

Record `O=C(O)c1cc2c([nH]c1=O)CCCC2` , field viability: 95

----------
Assay: reversal of MRP1-mediated doxorubicin resistance, pilot screen, H69AR cells, doxorubicin co-treatment (AID 601)
Details: H69AR cells + 2 uM doxorubicin, CellTiter-Glo, 72 h; at 10 µM; stronger effect = higher value
Exercise: for every item that follows, state its recorded differential viability (reversal).
I only need the number, in %, no unit after it.

Record `COc1ccccc1N(CC(=O)NCc1ccccc1)S(C)(=O)=O` , field differential viability (reversal): 3.07

Record `O=C(CCCCCn1c(SCc2ccncc2)nc2ccccc2c1=O)NCc1ccco1` , field differential viability (reversal): -13

Record COc1ccc(OC)c(C2C3=C(CCCC3=O)Nc3c2c(=O)n(C)c(=O)n3C)c1 (configuration not stated) , field differential viability (reversal): -5.08

Record `Cc1cc(C(=O)NCCN2CCN(c3cccc(Cl)c3)CC2)n(-c2ccccc2)n1` , field differential viability (reversal): -24.5

Record O=S(NCc1ccco1)C12CC3CC(CC(C3)C1)C2 (configuration not stated) , field differential viability (reversal): 3.96

Record O=C1CC(N2CCC(C(=O)N3CCCCC3)CC2)C(=O)N1 (configuration not stated) , field differential viability (reversal): 10

Record `O=C(c1ccco1)N1CCN(C(=O)C2CCN(S(=O)(=O)c3cccc4nsnc34)CC2)CC1` , field differential viability (reversal): 8.47

Record CC(=O)c1cccc(NC(=O)N2CCCC2C(=O)NCc2ccc(C)cc2)c1 (configuration not stated) , field differential viability (reversal): 8.41

Record `CCOC(=O)N1CCN(S(=O)(=O)c2ccc(F)c(C(=O)Nc3cc(C)cc(C)c3)c2)CC1` , field differential viability (reversal): 1.41

Record `Cc1ccc(S(=O)(=O)N[C@@H](C)C(=O)N2CCC(C(=O)N3CCC[C@H]3C(=O)O)CC2)cc1` , field differential viability (reversal): 8.07

Record `COCCn1c(SCC(=O)Nc2cccc(OC)c2)nnc1-c1ccccc1` , field differential viability (reversal): 6.8

Record `CCN(CCCNC(=O)c1cn(CC)c2ccc(S(=O)(=O)N(C)C)cc2c1=O)c1cccc(C)c1` , field differential viability (reversal): 60.4

Record `COC(=O)c1sc(N)c(C(=O)OC)c1CSc1nc2sc3c(c2c(=O)n1C)CCC3` , field differential viability (reversal): 8.74

Record `C=CCSc1nc(N)c(C(=O)Nc2ccccc2C)cc1C(N)=O` , field differential viability (reversal): -2.21

Record CC(C(=O)NCc1cccnc1)N1C(=O)c2ccccc2C1=O (configuration not stated) , field differential viability (reversal): -3.79

Record `CCOCCCNCC(=O)N1CCN(S(=O)(=O)c2ccc(C)cc2)CC1` , field differential viability (reversal): 12

Record `CCOC(=O)c1cccc(NC(=O)Cn2cnc3c2c(=O)n(C)c(=O)n3C)c1` , field differential viability (reversal): -6.33

Record `O=C(NCc1cccs1)c1cc2c(s1)CCCC2` , field differential viability (reversal): 5.47

Record `Cc1nn(-c2ccccc2)c(C)c1/C=N/O` , field differential viability (reversal): 11.4

Record Cc1ccccc1NC(=O)C1CC(=O)N(c2ccccc2F)C1 (configuration not stated) , field differential viability (reversal): 18.3

Record `CCOC(=O)Nc1ccc2c(c1)N(C(=O)CN(CC)CC)c1ccccc1C=C2` , field differential viability (reversal): 8.63

Record O=C(O)C1CC(=O)N(c2ccc(OCc3ccccc3Cl)cc2)C1 (configuration not stated) , field differential viability (reversal): 8.43
